Data provenance is PubChem BioAssay (NCI).

Test system: K-562 leukemia
Assay: NCI-60 one-dose screen, 48 h (100 = growth as untreated, 0 = no growth, -100 = all killed)
Settings: 10 µM unless noted
Compounds without any hit were thinned out: in the full panel of roughly 83,000, 20% have a hit.
Returns: string. Value is criterion met if measured growth is below 70%, and criterion not met if it is greater than or equal to it.

I'd appreciate it if you could check whether COC1(OC)C2(Cl)CCC1(Cl)C(Cl)=C2Cl has growth smaller than 70%.
criterion not met

State whether 70% exceeds growth recorded for CCN1C(=O)N(CC)C2C1N=C(SC)N2/N=C/C=C/c1ccccc1OC (configuration not stated) .
criterion met

Record COc1ccc(-c2cc(C(=O)Nc3ccc(Br)cc3)nc3[nH]c(=O)sc23)cc1 : is its growth strictly below 70%?
criterion met

Please state whether growth is below 70% for C=CCOC(=O)C1=C(C)NC2=C(C(=O)CCC2)C1c1ccc(F)cc1 (configuration not stated)
criterion not met

Answer whether the compound CCOC(=O)c1ccc(NC(=O)CSC(N)=O)cc1 has growth strictly less than 70%
criterion not met

Below 70% on growth? Entry COc1cc(C2CC(c3cccc(Nc4ccnc5cc(Cl)ccc45)c3)=NN2C=O)cc(OC)c1OC (configuration not stated)
criterion met

A record lists COc1ccc(/C=N/NC(N)=S)c(OC)n1 . Is its growth below 70%?
criterion not met

Bench note: check whether CCOC(=O)c1cc(N)nc2ccccc12 shows growth below 70%
criterion not met

For O=c1c2cc(Br)cc(Br)c2nc(-c2ccc(Cl)cc2)n1/N=C/c1cccc(F)c1 , is the recorded growth below the cut-off of 70%?
criterion met

In plain terms, does COc1ccc2nc(C)cc(Sc3nc4ccccc4s3)c2c1 come in under 70% for growth?
criterion met

Dear reviewer, please state whether CCOC(=O)C(CCCCC(NC(C)=O)(C(=O)OCC)C(=O)OCC)(NC(C)=O)C(=O)OCC has growth strictly beneath 70%.
criterion not met

In plain terms, does CCCCCCCCCCCCCCCCCC1=NCCN1CCO come in under 70% for growth?
criterion met

Find out if reported growth for C=C1C(=O)O[C@H]2[C@H]1CC/C(COC(=O)NCc1[nH]nc3ccccc13)=C\CC[C@@]1(C)O[C@@H]21 is less than 70%
criterion met

Identify whether the compound COc1cc(CN2CCC(N3CCCC3=O)c3ccccc32)cc(OC)c1OC (configuration not stated) records growth below 70%.
criterion met

Please state whether growth is below 70% for CN1C2CCC1/C(=C\c1ccc(F)cc1)C(=O)/C2=C/c1ccc(F)cc1
criterion met

Does this compound meet the criterion growth < 70%? C/C(=N\NC(=O)CSc1nc2ccccc2c(=O)n1CCc1ccc(S(N)(=O)=O)cc1)c1ccc(Br)cc1
criterion met

Quick check: growth of CCNCCCn1c2c(c3ccc(Cl)cc3c1=O)C(=O)c1cc(OC)cnc1-2 under 70%?
criterion met

Does this compound meet the criterion growth < 70%? O=C(O)CSc1ccc(NCc2oc(CO)cc(=O)c2O)cc1
criterion not met

Say whether its growth is strictly beneath 70%. Entry: COc1cc(OC)c2sc(-c3ccc(-n4cncc4-c4ccc(OC)c(N)c4)cc3)nc2c1
criterion met

In plain terms, does CCCCOC(=O)c1cc(O)c(O)c(O)c1 come in under 70% for growth?
criterion met

Consider the compound COc1ccc(CNc2c3ccccc3nc3ccc(OC)cc23)cc1 . Is its growth strictly less than 70%?
criterion met

====

Test system: MDA-MB-435 melanoma
Experiment: NCI-60 one-dose screen, 48 h (100 = growth as untreated, 0 = no growth, -100 = all killed)
Conditions: 10 µM unless noted
About 83,000 compounds went through this panel and 20% of them were active in at least one assay; those are over-represented in the sample as a whole. Activity calls are given as the source filed them. The calls were made as follows: active = growth percent below 10; inactive = the rest.
recorded.endpoint: growth

Return value of growth for input COc1ccc2c(c1)sc1nc(-c3ccccc3)c(-c3cccc4ccccc34)n12 , no commentary.
-49.4% (active)

Please look at this compound and report its growth: CC(=O)CC(c1ccc([N+](=O)[O-])cc1)c1c(O)c2ccccc2oc1=O (stereo not given)
103% (inactive)

Using the record for N/N=C(\C(=N\N)c1ccccc1)c1ccccc1 , state its measured growth.
103% (inactive)

Give growth for Oc1c(C(Nc2cccc3ccccc23)c2ccccc2)ccc2cccnc12 (stereo not given)
42.3% (inactive)

Give a short answer stating reported growth for C(=Nc1ccc(-c2ccc(N=Cc3ccccc3)cc2)cc1)c1ccccc1 .
107% (inactive)

Answer with the recorded growth of Cc1c2c(cc3c1[nH]c1ccccc13)C=NCC2 only.
94.9% (inactive)

Give the reported value of growth for this record: COc1ccc(-c2nc3c(c(-c4ccc(Cl)cc4)nn3-c3ccccc3)c(-c3ccc(O)cc3)c2C#N)cc1
44.3% (inactive)

Provide one value: measured growth of Cc1ccc(OC2=C(C#N)C(=N)N3C(=NN2)Sc2c(C)ccc(C)c23)cc1
106% (inactive)

Return the recorded growth value; entry: O=C(Nc1ccc(Cl)cc1)c1cc(-c2ccc(Cl)cc2)c2sc(=O)[nH]c2n1
7.39% (active)

Answer with the recorded growth of CC(C)c1nc2ccccc2n1CC(=O)N/N=C/c1cccc(O)c1 only.
99.8% (inactive)

====

Tested on: SR leukemia
Assay: NCI-60 one-dose screen, 48 h (100 = growth as untreated, 0 = no growth, -100 = all killed)
Settings: 10 µM unless noted
This is part of a sample that, as a whole, favours compounds with a hit. Of some 83,000 tested, about 20% had one in any assay.
recorded.endpoint: growth (%)
The figure you give is taken to be in %; do not add the unit.

// fetch growth given entry CC1CCCN(CCCCOc2ccc(-c3ccc(C#N)cc3)cc2)C1 (stereo not given)
86.8

Query growth for CCNC(=O)c1ccc2c(c1)nc(-c1ccc(Cl)cc1)n2-c1cc(C(C)(C)C)[nH]n1
-11.8

Identify growth associated with the compound Cc1ccccc1C1CC(=O)c2ccccc2C1C (stereo not given)
78.7

Quote growth reported for O=C1/C(=C/N2N=C(c3ccc(Cl)cc3)CC2c2ccccc2O)SC(=S)N1c1cccc(C(F)(F)F)c1 (stereo not given) please.
42

Given the compound COc1ccc(-n2c(COc3ccc(F)cc3)n[nH]c2=S)cc1 , write its reported growth.
120

====

Kindly state growth for each of the entries shown.
Test system: PC-3 prostate
Assay: NCI-60 one-dose screen, 48 h (100 = growth as untreated, 0 = no growth, -100 = all killed)
Settings: 10 µM unless noted
About 83,000 compounds went through this panel and 20% of them were active in at least one assay; those are over-represented in the sample as a whole.
Note: unit % is implicit; provide only the numeric part.

Please tell me the measured growth for Cc1ccc(Nc2cc(Cl)c([N+](=O)[O-])cc2[N+](=O)[O-])cc1 ; system: PC-3 prostate.
55.3

Send back PC-3 prostate growth of CCOC(=O)c1cnc(SCC)nc1SC#N only.
91.7

Please respond with reported growth (system PC-3 prostate) for CCCCc1nc(Cl)c(C2CC(c3ccc(S(N)(=O)=O)cc3)=NN2c2ccc(C#N)cc2)[nH]1 (stereo unspecified) .
69.4

Identify measured growth obtained with PC-3 prostate for O=C1Nc2ccc(Cl)cc2/C1=C\c1c(-c2ccc(F)cc2)nc2ccccn12 .
18.8

Provide growth, recorded with PC-3 prostate, of CCOC(=O)c1ccc(NC(=O)CSC(N)=O)cc1
85.6

Fill: growth (PC-3 prostate) for this molecule C=C(C)[C@@H]1CC[C@]2(C(=O)NS(=O)(=O)c3ccccc3)CC[C@]3(C)[C@H](CC[C@@H]4[C@@]5(C)CC[C@H](OC(=O)NS(=O)(=O)c6ccccc6)C(C)(C)[C@@H]5CC[C@]43C)[C@@H]12
7.83

====

System: ACHN renal
Assay: NCI-60 one-dose screen, 48 h (100 = growth as untreated, 0 = no growth, -100 = all killed)
Conditions: 10 µM unless noted
Compounds without any hit were thinned out: in the full panel of roughly 83,000, 20% have a hit. Active and inactive are the calls of the source. The calls were made as follows: active = growth percent below 10; inactive = the rest.
recorded.endpoint: growth

In one line, give reported growth of the entry Nc1c(Br)cc2c(c1Br)Cc1cc(Cl)ccc1-2 .
81.3% (inactive)

Supply reported growth belonging to this molecule: COc1cc(/C=C\c2cc(/C=C\c3ccc(O)c(OC)c3)n(C(=O)Nc3ccc(C(F)(F)F)cc3)n2)ccc1O
65.8% (inactive)

Using known records, supply growth for CN(C)c1nc(-c2cccs2)n2nc(-c3ccco3)cc2n1
96.9% (inactive)

Supply measured growth of CCc1c(C)c2ccc(O)c(-c3cc(-c4ccccc4)c(C#N)c(=O)[nH]3)c2oc1=O in your reply.
103% (inactive)

Output growth of c1csc(-c2cnc3nonc3n2)c1
85.7% (inactive)

Dear colleague, please send me the reported growth for COc1cc(/C=C2\CN(C(=O)OC(C)(C)C)C/C(=C\c3ccc(O)c(OC)c3)C2=O)ccc1O when you can.
100% (inactive)

Supply measured growth of O=C1/C=C/[C@@H](O)[C@@H]2C[C@@H](O)C[C@H]2/C=C/CCC[C@H]([C@@H](O)CO)O1 in your reply.
109% (inactive)

Indicate its recorded growth; the molecule in question is CC1CCCN(CCCCOc2ccc(-c3ccc(C#N)cc3)cc2)C1 (stereo not given)
111% (inactive)

Report growth for COc1ccc(CNc2c3ccccc3nc3ccccc23)cc1F
10.9% (inactive)

Indicate its recorded growth; the molecule in question is Cc1c(C(N)=O)sc2ncn(CC(=O)NN=C3CCCCC3)c(=O)c12
109% (inactive)
